- System: CCRIS mutagenicity, Ames/micronucleus/aberration tests
- Measurement protocol: CCRIS mutagenicity studies
- Applied conditions: Test System: AMES SALMONELLA TYPHIMURIUM; Strain/Indicator: TA1538; Metabolic Activation: RAT, LIVER, S-9, AROCLOR 1254; Method: STANDARD PLATE
- Description: The CCRIS database contains chemical records with carcinogenicity, mutagenicity, tumor promotion, and tumor inhibition test results. It was developed by the National Cancer Institute (NCI). Data are derived from studies cited in primary journals, current awareness tools, NCI reports, and other sources. Test results have been reviewed by experts in carcinogenesis and mutagenesis. CCRIS provides historical information from the years 1985 - 2011. It is no longer updated. […]
Activity calls are given as the source filed them. The rule behind the calls is not given here.
// one of active, inactive, no free text

Smiles code: Nc1ncn([C@@H]2O[C@H](CO)[C@@H](O)[C@@H]2O)c(=O)n1
Tgt: CCRIS mutagenicity, Ames/micronucleus/aberration tests
Group: inactive
//
Smiles code: CC(C)c1cc(N)c([N+](=O)[O-])cc1N
Tgt: CCRIS mutagenicity, Ames/micronucleus/aberration tests
Group: active
//
Smiles code: CC(C)C[C@H](NC(=O)COc1cc(Cl)c(Cl)cc1Cl)C(=O)O
Tgt: CCRIS mutagenicity, Ames/micronucleus/aberration tests
Group: inactive
//
Smiles code: Cc1cc(N)cc([N+](=O)[O-])c1N
Tgt: CCRIS mutagenicity, Ames/micronucleus/aberration tests
Group: active
//
Smiles code: CC/C=C\C/C=C\C/C=C\CCCCCCCC(=O)O
Tgt: CCRIS mutagenicity, Ames/micronucleus/aberration tests
Group: inactive

Could you now look at the following molecule, please?
Hi team, can someone confirm the assay call for "COc1cc(N)c(C)cc1N" ?
inactive
